Each recorded value in this set is attributed to patent US20050013808A1.

- Tested on: UT5600 cells (NTR−) lysogens
- run_description: Replica-plate screening of mutant NTR-expressing lysogens on increasing CB1954 (growth score)
- Type: cell-based, E. coli
- recorded_conditions: growth of lysogens on agar with kanamycin, IPTG and 0-400 μM CB1954; wild type = 4, higher = more sensitive
assay_readout: Score

T41G (protein) MDIISVALKRHSTKAFDASKKLTPEQAEQIKTLLQYSPSSGNSQPWHFIVASTEEGKARVAKSAAGNYVFNERKMLDASHVVVFCAKTAMDDVWLKLVVDQEDADGRFATPEAKAANDKGRKFFADMHRKDLHDDAEWMAKQVYLNVGNFLLGVAALGLDAVPIEGFDAAILDAEFGLKEKGYTSLVVVPVGHHSVEDFNATLPKSRLPQNITLTEV = 5-7
S40A (protein) MDIISVALKRHSTKAFDASKKLTPEQAEQIKTLLQYSPSATNSQPWHFIVASTEEGKARVAKSAAGNYVFNERKMLDASHVVVFCAKTAMDDVWLKLVVDQEDADGRFATPEAKAANDKGRKFFADMHRKDLHDDAEWMAKQVYLNVGNFLLGVAALGLDAVPIEGFDAAILDAEFGLKEKGYTSLVVVPVGHHSVEDFNATLPKSRLPQNITLTEV = 5-7

### Prompt Tell me the measured Score of Y68A (protein) MDIISVALKRHSTKAFDASKKLTPEQAEQIKTLLQYSPSSTNSQPWHFIVASTEEGKARVAKSAAGNAVFNERKMLDASHVVVFCAKTAMDDVWLKLVVDQEDADGRFATPEAKAANDKGRKFFADMHRKDLHDDAEWMAKQVYLNVGNFLLGVAALGLDAVPIEGFDAAILDAEFGLKEKGYTSLVVVPVGHHSVEDFNATLPKSRLPQNITLTEV , please.
### Response 5-7
